system: Mo-T (Other Blood Carcinomas); experiment: combination Emax (second highest fraction inhibited in the dose matrix, 72 h); higher = more inhibition; extreme values may be limits of the assay
Give combination Emax for every item shown.
Answers are plain numbers.

Example cases with answers are listed next.
molecule	combination Emax
CC1(C)CCC(CN2CCN(c3ccc(C(=O)NS(=O)(=O)c4ccc(NCC5CCOCC5)c([N+](=O)[O-])c4)c(Oc4cnc5[nH]ccc5c4)c3)CC2)=C(c2ccc(Cl)cc2)C1 [Venetoclax] + C1CN(CCC1(C(=O)N[C@@H](CCO)C2=CC=C(C=C2)Cl)N)C3=NC=NC4=C3C=CN4 [Capivasertib] (first compound max 1 µM, 7x7, partner max 3 µM)	0.604
Cc1cc2ncnn2cc1Nc1ncc2c(n1)n(C1CCOCC1)c(=O)n2C [AZD7648] + CN(C)CCCOc1ccc(-c2ccc3ncc4c(c3c2)n(C2CCOCC2)c(=O)n4C)cn1 [AZD0156] (first compound max 10 µM, 7x7, partner max 1 µM)	0.3

Your task in this section: give combination Emax for each listed record.
1. COc1nnc2ccc(N3CCC(c4ccc(OCCN5CCN(C)C(=O)[C@H]5C)cc4)CC3)nn12 [AZD5153] + CC1(C)CCC(CN2CCN(c3ccc(C(=O)NS(=O)(=O)c4ccc(NCC5CCOCC5)c([N+](=O)[O-])c4)c(Oc4cnc5[nH]ccc5c4)c3)CC2)=C(c2ccc(Cl)cc2)C1 [Venetoclax] (first compound max 1 µM, 7x7, partner max 1 µM)
2. C=CCn1c(=O)c2cnc(Nc3ccc(N4CCN(C)CC4)cc3)nc2n1-c1cccc(C(C)(C)O)n1 [AZD1775] + C[C@@H]1COCCN1C2=NC(=NC(=C2)C3(CC3)[S@](=N)(=O)C)C4=C5C=CNC5=NC=C4 [AZD6738] (first compound max 1 µM, partner max 10 µM)
3. Cc1c2c(nn1C)CSCc1cc(n(C)n1)CSc1cc(c3ccccc3c1)OCCCc1c(C(=O)O)n(C)c3c-2c(Cl)ccc13 [AZD5991] + CS(=O)(=O)CCNCc1ccc(-c2ccc3ncnc(Nc4ccc(OCc5cccc(F)c5)c(Cl)c4)c3c2)o1 [Lapatinib] (first compound max 1 µM, 7x7, partner max 10 µM)
4. COc1nnc2ccc(N3CCC(c4ccc(OCCN5CCN(C)C(=O)[C@H]5C)cc4)CC3)nn12 [AZD5153] + C[C@@H]1COCCN1C2=NC(=NC(=C2)C3(CC3)[S@](=N)(=O)C)C4=C5C=CNC5=NC=C4 [AZD6738] (first compound max 1 µM, 7x7, partner max 10 µM)
5. CC1(C)CCC(CN2CCN(c3ccc(C(=O)NS(=O)(=O)c4ccc(NCC5CCOCC5)c([N+](=O)[O-])c4)c(Oc4cnc5[nH]ccc5c4)c3)CC2)=C(c2ccc(Cl)cc2)C1 [Venetoclax] + Cn1cnc2c(F)c(Nc3ccc(Br)cc3Cl)c(C(=O)NOCCO)cc21 [Selumetinib] (first compound max 1 µM, 7x7, partner max 3 µM)

[0.611, 0.61, 0.371, 0.746, 0.618]
